- Measured On: SHP2-C SH2
- Test: SH2 binding enrichment of the phosphorylated peptide, bacterial display (enrichment ratio); higher = better substrate or ligand; peptides without Tyr show the background
Parameter Measured: SH2 binding enrichment

>  <Sequence>
KLPYLYDDPFS [GPX2_Y127_P126L]

>  <Measured On>
SHP2-C SH2;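 note: peptide library displayed on the E. coli surface as eCPX fusions, selected cells deep-sequenced, score is each peptide's frequency after selection divided by its frequency in the input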

>  <Number>
0.797

$$$$

(P) LKGQVYILGRE [ASS1_Y359]
(Q) DFTSRYLNASD [PKHD1_Y828]
Challenge: Which has the smaller recorded SH2 binding enrichment, P or Q ? Return value: the label identifying the chosen record.
Response given: P
(P: 0.444, Q: 0.779)

* * *

- Measured On: Jak2 (UniProt O60674)
- Sequence (O60674 whole entry, looked up): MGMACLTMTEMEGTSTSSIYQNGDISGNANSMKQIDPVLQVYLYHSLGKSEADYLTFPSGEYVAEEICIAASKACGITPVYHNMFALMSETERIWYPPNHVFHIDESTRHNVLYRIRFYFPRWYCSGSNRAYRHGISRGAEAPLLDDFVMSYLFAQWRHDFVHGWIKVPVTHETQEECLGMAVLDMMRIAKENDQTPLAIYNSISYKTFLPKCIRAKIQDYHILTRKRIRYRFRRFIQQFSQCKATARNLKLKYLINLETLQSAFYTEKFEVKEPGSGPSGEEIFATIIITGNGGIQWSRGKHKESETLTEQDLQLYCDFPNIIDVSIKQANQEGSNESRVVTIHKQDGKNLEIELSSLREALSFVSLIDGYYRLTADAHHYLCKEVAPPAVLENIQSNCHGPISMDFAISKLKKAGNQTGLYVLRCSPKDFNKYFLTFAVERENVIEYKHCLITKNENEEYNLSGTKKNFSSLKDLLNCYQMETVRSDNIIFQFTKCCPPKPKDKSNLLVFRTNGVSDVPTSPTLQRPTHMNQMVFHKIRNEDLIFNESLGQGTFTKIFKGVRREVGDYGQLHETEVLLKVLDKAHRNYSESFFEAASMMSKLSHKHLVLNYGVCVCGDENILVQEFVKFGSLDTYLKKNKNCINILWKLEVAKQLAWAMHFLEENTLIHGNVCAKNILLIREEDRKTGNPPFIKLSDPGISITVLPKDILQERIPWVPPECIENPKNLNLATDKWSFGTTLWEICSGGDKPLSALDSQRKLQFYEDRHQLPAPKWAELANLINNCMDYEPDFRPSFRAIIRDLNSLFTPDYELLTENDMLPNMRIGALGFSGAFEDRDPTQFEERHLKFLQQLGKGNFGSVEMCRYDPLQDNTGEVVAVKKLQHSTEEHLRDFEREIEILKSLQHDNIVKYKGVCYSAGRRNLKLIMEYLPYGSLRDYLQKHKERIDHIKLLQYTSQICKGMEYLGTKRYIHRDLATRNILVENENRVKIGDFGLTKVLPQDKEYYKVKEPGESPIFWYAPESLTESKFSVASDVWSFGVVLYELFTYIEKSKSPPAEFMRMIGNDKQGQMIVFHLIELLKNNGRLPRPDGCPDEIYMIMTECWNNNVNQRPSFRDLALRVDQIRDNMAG
- Test: phosphorylation enrichment, bacterial display (enrichment ratio); higher = better substrate or ligand; peptides without Tyr show the background
Parameter Measured: phosphorylation enrichment
Field format: numeric only.

Example sequences with recorded phosphorylation enrichment:
>  <Sequence>
GGRKGYGGFSR [RECQL5_Y478_D480G]

>  <Measured On>
Jak2 (UniProt O60674)

>  <phosphorylation enrichment>
0.51

$$$$
>  <Sequence>
QGLMPYGQPRP [SRRT_Y798]

>  <Measured On>
Jak2 (UniProt O60674)

>  <phosphorylation enrichment>
0.601

$$$$
>  <Sequence>
WDLSEYSYKDP [ITGA3_Y237]

>  <Measured On>
Jak2 (UniProt O60674)

>  <phosphorylation enrichment>
0.997

$$$$
>  <Sequence>
MSSHHYDYKKY [ZNF445_Y428]

>  <Measured On>
Jak2 (UniProt O60674)

>  <phosphorylation enrichment>
0.441

$$$$
>  <Sequence>
MDDPRYGMCPL [ZNF100_Y6]

>  <Measured On>
Jak2 (UniProt O60674)

>  <phosphorylation enrichment>
1.27

$$$$

Now consider the entry below.
Challenge: If you can, please state the reported phosphorylation enrichment value of FRKNIYNVKST [SYNE2_Y575_YF] .
Response given: 0.384
